The reported numbers originate from patent US12637471B2.

Biological target: 17β-Hydroxysteroid Dehydrogenase Type 2 Enzyme (17β-HSD2) (Homo sapiens)
Construct: made in house; host or cells: Sf-9 insect cells (baculovirus)
Sequence (P37059 whole entry): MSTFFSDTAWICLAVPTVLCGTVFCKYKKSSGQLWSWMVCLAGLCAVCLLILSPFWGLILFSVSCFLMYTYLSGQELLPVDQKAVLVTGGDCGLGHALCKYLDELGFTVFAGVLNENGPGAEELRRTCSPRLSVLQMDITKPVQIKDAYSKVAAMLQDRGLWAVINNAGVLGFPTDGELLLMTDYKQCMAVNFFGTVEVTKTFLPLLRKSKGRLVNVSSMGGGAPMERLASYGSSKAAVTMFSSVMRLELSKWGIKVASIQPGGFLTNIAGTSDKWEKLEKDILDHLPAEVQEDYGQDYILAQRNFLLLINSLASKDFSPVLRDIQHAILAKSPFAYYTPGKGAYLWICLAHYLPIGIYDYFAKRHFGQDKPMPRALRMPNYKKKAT
Assay: Inhibition of the 17β-hydroxysteroid dehydrogenase type 2 enzyme, 3H-testosterone conversion
Format: biochemical
Settings: inhibitor at 10 μM
Metric name: inhibition at 10 µM (%)
Could you give me the number in %? Just the number is fine.

> print(dat)
                                   compound  quantitative.result
1  N#CC(=C1CCN(C(=O)N2CCOCC2)CC1)c1ccc(Cl)cc1 [Compound 2]                    3
2  N#CC(=C1CCN(C(=O)N2CC(C#N)C2)CC1)c1ccc(F)c(F)c1 [Compound 36]                   -3

# input for lookup
Inquiry: API: value(readout=inhibition at 10 µM, system=17β-Hydroxysteroid Dehydrogenase Type 2 Enzyme (17β-HSD2) (Homo sapiens)) for record N#CC(=C1CCN(C(=O)N2CCC(CCCO)CC2)CC1)c1ccc(F)cc1 [Compound 142]
Reply text: 4
